Quick reference for pIC50 among some molecules
# assay_system: Cytochrome P450 3A4 (Homo sapiens)
# Sequence (P08684 whole entry): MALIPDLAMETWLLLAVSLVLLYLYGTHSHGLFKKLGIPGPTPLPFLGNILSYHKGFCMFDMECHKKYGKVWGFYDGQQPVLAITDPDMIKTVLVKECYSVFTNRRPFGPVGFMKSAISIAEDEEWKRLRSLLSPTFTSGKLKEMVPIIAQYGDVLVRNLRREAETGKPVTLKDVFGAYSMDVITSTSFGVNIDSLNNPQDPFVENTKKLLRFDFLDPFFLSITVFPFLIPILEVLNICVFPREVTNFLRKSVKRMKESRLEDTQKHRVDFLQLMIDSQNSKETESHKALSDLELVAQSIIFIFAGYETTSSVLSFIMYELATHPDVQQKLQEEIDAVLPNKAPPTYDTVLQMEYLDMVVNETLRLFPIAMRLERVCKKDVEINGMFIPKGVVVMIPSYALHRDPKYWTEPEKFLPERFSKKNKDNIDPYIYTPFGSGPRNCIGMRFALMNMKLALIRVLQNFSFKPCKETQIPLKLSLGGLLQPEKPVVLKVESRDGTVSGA
In plain terms, pIC50 is the concentration in mol/L turned into minus its base-10 logarithm.

# smiles_input, assay_system, pIC50
rows = [
    ("C[C@H]([C@@H](c1ccc2cc(OCC3(C(=O)O)CCCCC3)ccc2c1)n1ccnc1)N(C)C", "Cytochrome P450 3A4 (Homo sapiens)", 5.10),
    ("CC(C)N(C)[C@H](C)[C@@H](c1ccc2cc(OCC3(C(=O)O)CCCC3)ccc2c1)n1ccnc1", "Cytochrome P450 3A4 (Homo sapiens)", 6.10),
    ("C[C@H]([C@@H](c1ccc2cc(OCC3(C(=O)O)CCC3)ccc2c1)n1ccnc1)N(C)C", "Cytochrome P450 3A4 (Homo sapiens)", 5.15),
]

input: Give the measured pIC50 of CCN(CC)[C@H](C)[C@@H](c1ccc2cc(OCC3(C(=O)O)CCCC3)ccc2c1)n1ccnc1 .
output: 6.00

Source of measurements: ChEMBL document CHEMBL1147708
